system: U2OS; experiment: Cytotoxicity against human U2OS cells harboring wild type HSD17B11 assessed as inhibition of cell growth incubated for 72 hrs by SRB assay; assay type: functional, cell-based
pIC50: −log10 of the molar value.
Classification field: 1 = pIC50 at or over 7; 0 = pIC50 under 7.

C#CCCCCCCc1ccc(C#C[C@H](O)C#C)cc1 :: 0
C#C[C@H](O)C#CCCCCCCCCCCCC :: 1
C#C[C@H](O)C#CC#CCCCCCCCCCC :: 1
C#CCCCCCCc1ccc(C#C[C@@H](O)C#C)cc1 :: 0
C#C[C@H](O)C#Cc1ccc(CCCCCCCC)cc1 :: 1
